- ASSAY_TARGET: Golgi-associated PDZ and coiled-coil motif-containing protein (Homo sapiens) (UniProt Q9HD26)
- ASSAY_METHOD_TEXT: untagged CAL PDZ binding inhibitors, primary screen, biochemical, fluorescence polarization, HTS (AID 602252);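 further: 0% = DMSO neutral control and 100% = excess unlabeled competitor peptide PRC23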
- RECORDED_CONDITIONS: purified CAL PDZ, TMR-peptide fluorescence polarization, 1 h; at 24.9 µM; active compounds read high
Hit rate of the full screen: of about 300,000 compounds, about 2,700 (0.9%) were called active. Many of the other results were omitted from the sample, so actives are more common in it than they were.
REPORTED_ENDPOINT: inhibition (%)
The response must be a number in % with no trailing unit.

Example entries begin here.
CC(=O)c1c(C)[nH]c(C(=O)OCC(=O)Nc2c(C)cccc2C)c1C	4.23
O=C(CNC(=O)c1cc(S(=O)(=O)N2CCOCC2)ccc1N1CCCC1)Nc1ccc(F)c(F)c1	-2.42
COc1ccccc1C(=O)NCCC(=O)NCC(c1ccco1)N1CCCCC1 (stereo not given)	2.93
CC(=O)c1c(C)[nH]c(C(=O)OCC(=O)NCCC(C)C)c1C	66.4
O=C1[C@@H](c2ccccc2)[C@@H](c2ccccc2)N1c1cccnc1	-3.46

Incoming: Determine its reported inhibition: CC(C)[C@@H](C(=O)OCC(=O)c1ccc2c(c1)NC(=O)CO2)N1C(=O)c2ccccc2C1=O
Outgoing: -3.95

Incoming: Quote inhibition reported for CSc1ncccc1C(=O)NCC(c1ccco1)N1CCCCC1 (stereo not given) please.
Outgoing: 63.8

Incoming: Give inhibition for Cc1ccc(S(=O)(=O)N2C[C@@H]3CCCC[C@@H]3[C@@H](C)[C@H]2c2cn(Cc3ccccc3)c3ccc(F)cc23)cc1
Outgoing: -5.03

Incoming: Read off the recorded inhibition for COc1ccc(C(CNC(=O)c2cccnc2SC)N2CCOCC2)cc1 (stereo not given)
Outgoing: -3.62

Incoming: # return recorded inhibition for input Cc1ccc(S(=O)(=O)NC2CCCCCC2)cc1
Outgoing: 0.011

###

// values below are reported inhibition
- ASSAY_TARGET: Golgi-associated PDZ and coiled-coil motif-containing protein (Homo sapiens)
- ASSAY_METHOD_TEXT: untagged CAL PDZ binding inhibitors, primary screen, biochemical, fluorescence polarization, HTS (AID 602252);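 further: 0% = DMSO neutral control and 100% = excess unlabeled competitor peptide PRC23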
- RECORDED_CONDITIONS: purified CAL PDZ, TMR-peptide fluorescence polarization, 1 h; at 24.9 µM; active compounds read high
Among all 300,000 compounds or so, about 2,700 (0.9%) were called active. The list comes from a sample in which actives are over-represented; it also holds close analogues and randomly drawn compounds.
Give the value, in units of %, as a plain number.

CSc1ccccc1NC(=O)c1ccc2c(c1)CCN2S(C)(=O)=O	-1.36
Cc1ccc(OCC(=O)Nc2ccc(C(=O)O)cc2NC(=O)COc2ccc(C)c(C)c2)cc1C	56.8
COC1=CC(=O)OC(c2ccc(OC)cc2)C1 (stereo unspecified)	45
O=C(CSc1cccc[n+]1[O-])c1ccc(-c2ccccc2)cc1	0.814
CCCCCc1ccc(-c2cn(Cc3ccc4ccccc4c3)nn2)cc1	-1.31

Incoming: Find inhibition for CC(=O)c1ccc(OCC(O)CN2CCN(S(=O)(=O)c3cccc(Br)c3)CC2)cc1 (stereo unspecified) on Golgi-associated PDZ and coiled-coil motif-containing protein (Homo sapiens) and write it down.
Outgoing: 35

Incoming: Give Golgi-associated PDZ and coiled-coil motif-containing protein (Homo sapiens) inhibition for the following molecule: CCOc1nc(OCC)nc(-n2cc(-c3ccccc3)nn2)n1
Outgoing: 145

Incoming: Find the measured inhibition of CCC(C)NC(=O)CN(C1CCCCC1)S(C)(=O)=O (stereo unspecified) with Golgi-associated PDZ and coiled-coil motif-containing protein (Homo sapiens) as test system.
Outgoing: 7.29

Incoming: State inhibition on Golgi-associated PDZ and coiled-coil motif-containing protein (Homo sapiens). Entry: COc1ccccc1C(=O)CSc1cccc[n+]1[O-]
Outgoing: 1.87

Incoming: State inhibition on Golgi-associated PDZ and coiled-coil motif-containing protein (Homo sapiens). Entry: O=C(CSc1cccc[n+]1[O-])c1ccc(Cl)cc1
Outgoing: 51.8

Incoming: Recall the reported inhibition of O=S(=O)(c1ccc(OCC(O)CN2CCN(c3ccccc3Cl)CC2)cc1)N1CCOCC1 (stereo unspecified) on Golgi-associated PDZ and coiled-coil motif-containing protein (Homo sapiens) and write it down.
Outgoing: -2.34
